Data origin: paper PMC3116189

Experimental System: UniProt P05177
Sequence (P05177 1-516): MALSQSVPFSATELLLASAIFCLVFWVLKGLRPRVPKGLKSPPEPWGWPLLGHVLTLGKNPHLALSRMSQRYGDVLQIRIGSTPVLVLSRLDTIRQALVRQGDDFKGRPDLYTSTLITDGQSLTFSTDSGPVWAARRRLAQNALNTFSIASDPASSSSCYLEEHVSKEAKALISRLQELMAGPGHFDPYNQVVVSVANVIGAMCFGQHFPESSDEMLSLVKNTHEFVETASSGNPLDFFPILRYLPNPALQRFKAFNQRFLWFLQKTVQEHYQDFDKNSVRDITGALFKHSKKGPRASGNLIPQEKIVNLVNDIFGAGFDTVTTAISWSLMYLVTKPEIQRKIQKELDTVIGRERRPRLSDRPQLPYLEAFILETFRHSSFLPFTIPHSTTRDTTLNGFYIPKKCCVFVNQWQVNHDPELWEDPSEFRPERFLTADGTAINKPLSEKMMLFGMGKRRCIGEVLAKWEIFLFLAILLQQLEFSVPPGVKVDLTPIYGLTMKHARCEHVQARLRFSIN
Test: in vitro
Assay type: biochemical
Condition Description: human, recombinant enzyme, pH 7.4
Exercise: for every item that follows, state its recorded activity at 1 h, 1 μM.

>  <Compound>
O=C(O)c1cc(O)c(O)c(O)c1 [Gallic acid]

>  <activity at 1 h, 1 μM>
> 90%

$$$$
>  <Compound>
O=C/C=C/c1ccccc1 [Cinnamaldehyde]

>  <activity at 1 h, 1 μM>
> 90%

$$$$

Request: Return reported activity at 1 h, 1 μM. Input compound: C[C@@H]1O[C@@H](Oc2c(-c3ccc(O)cc3)oc3cc(O)cc(O)c3c2=O)[C@H](O)[C@H](O)[C@H]1O [zhang 911, Kaempferol-3-O-α-L-rhamnopyranoside]
Response: > 90%

* * *

Experimental System: CYP1A2 (Homo sapiens)
Sequence (P05177 1-516): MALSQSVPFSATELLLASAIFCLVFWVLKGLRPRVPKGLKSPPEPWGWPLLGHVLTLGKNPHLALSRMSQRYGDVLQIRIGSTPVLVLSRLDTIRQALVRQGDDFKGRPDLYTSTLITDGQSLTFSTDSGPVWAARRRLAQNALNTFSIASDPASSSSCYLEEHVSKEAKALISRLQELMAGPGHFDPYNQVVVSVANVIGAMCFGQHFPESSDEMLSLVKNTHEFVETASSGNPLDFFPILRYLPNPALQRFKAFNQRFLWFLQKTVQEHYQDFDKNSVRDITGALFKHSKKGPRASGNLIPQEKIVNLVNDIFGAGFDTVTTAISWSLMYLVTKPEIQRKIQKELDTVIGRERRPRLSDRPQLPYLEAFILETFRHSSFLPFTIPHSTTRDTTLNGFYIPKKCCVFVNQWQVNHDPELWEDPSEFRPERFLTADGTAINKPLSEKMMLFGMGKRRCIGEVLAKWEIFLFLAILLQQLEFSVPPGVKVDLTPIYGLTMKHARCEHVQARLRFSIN
Test: in vitro
Assay type: biochemical
Condition Description: human, recombinant enzyme, pH 7.4
Metric: activity at 1 h, 1 μM

Worked cases, answers included:
>  <Molecule>
O=C(O)/C=C/c1ccccc1

>  <Value Measured>
> 90%

$$$$
>  <Molecule>
OC[C@H]1O[C@@H](OCCc2ccc(O)cc2)[C@H](O)[C@@H](O)[C@@H]1O [Salidroside]

>  <Value Measured>
> 90%

$$$$
>  <Molecule>
C[C@@H]1O[C@@H](O[C@H]2[C@H](Oc3cc(O)c4c(c3)O[C@H](c3ccc(O)cc3)CC4=O)O[C@H](CO)[C@@H](O)[C@@H]2O)[C@H](O)[C@H](O)[C@H]1O

>  <Value Measured>
> 90%

$$$$
>  <Molecule>
COc1cc(C2Oc3cc([C@H]4Oc5cc(O)cc(O)c5C(=O)[C@@H]4O)ccc3OC2CO)ccc1O (stereo partly shown)

>  <Value Measured>
> 90%

$$$$
>  <Molecule>
O=c1cc(-c2ccccc2)oc2cc(O)cc(O)c12

>  <Value Measured>
4.6%

$$$$
>  <Molecule>
O=c1ccc2cc(O)c(O)cc2o1

>  <Value Measured>
> 90%

$$$$
>  <Molecule>
C[C@H]1O[C@@H](O[C@H]2CC[C@@]3(C)[C@@H](CC[C@]4(C)[C@@H]3C=C[C@]35OC[C@@]6(CCC(C)(C)C[C@H]63)[C@@H](O)C[C@]54C)[C@]2(C)CO)[C@H](O)[C@@H](O[C@@H]2O[C@H](CO)[C@@H](O)[C@H](O)[C@H]2O)[C@H]1O

>  <Value Measured>
> 90%

$$$$
>  <Molecule>
O=c1c(-c2ccc(O)cc2)coc2cc(O)ccc12

>  <Value Measured>
> 90%

$$$$

# batch: return activity at 1 h, 1 μM for each of the 2 molecules below
1. CNCC(O)c1ccc(O)cc1 (stereo not shown) [Synephrine]
2. O=c1cc(-c2ccccc2)oc2cc(O)c(O)c(O)c12

Response:
["> 90%", "> 90%"]

Please state, for each entry, its recorded activity at 1 h, 1 μM.
1. COc1ccc2cc1Oc1ccc(cc1)C[C@H]1c3cc(c(OC)cc3CCN1C)Oc1c(OC)c(OC)cc3c1[C@H](C2)N(C)CC3
2. COc1ccc2ccc(=O)oc2c1CC=C(C)C
3. COC(=O)c1c2c(c3ccccc3c1O)OC(C)(C)C=C2
4. C=C1CC[C@H]2C(=C)CC[C@H]3C(=C)C(=O)O[C@@H]3[C@@H]12 [Dehydrocostus lactone]
5. C=CCc1ccc(O)c(-c2ccc(O)c(CC=C)c2)c1
6. C[C@@H]1O[C@@H](OC[C@H]2O[C@@H](Oc3c(-c4ccc(O)c(O)c4)oc4cc(O)cc(O)c4c3=O)[C@H](O)[C@@H](O)[C@@H]2O)[C@H](O)[C@H](O)[C@H]1O

Response:
["> 90%", "86.8%", "> 90%", "> 90%", "33.6%", "> 90%"]

* * *

Experimental System: CYP1A2 (Homo sapiens);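 note: recombinant CYP1A2 incubated for 1 h at 37 °C, with the reaction started by an NADPH-generating system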
Test: in vitro
Type: biochemical
Condition Description: human, recombinant human CYP1A2, pH 7.4, probe phenacetin (25 μM), O-deethylation to acetaminophen; 1 μM test compound, 25 μM phenacetin, average of duplicate determinations; read-out: % of Control Indication Activity
Metric: activity at 1 h, 1 μM

Record excerpt, results attached:
>  <Compound>
COc1ccc(-c2oc3cc(O)cc(O)c3c(=O)c2OC)cc1OC [zhang 759]

>  <Value Measured>
> 90%

$$$$
>  <Compound>
O=c1c(O[C@@H]2OC[C@@H](O)[C@@H](O)[C@@H]2O)c(-c2ccc(O)c(O)c2)oc2cc(O)cc(O)c12 [zhang 205, quercetin-3-O-β-D-arabinopyranoside]

>  <Value Measured>
> 90%

$$$$
>  <Compound>
O=c1ccc2ccc(Oc3cc4cc(O)c(O)cc4oc3=O)cc2o1 [zhang 300, Edgeworthin]

>  <Value Measured>
< 90%

$$$$

Request: Name the recorded activity at 1 h, 1 μM of the item COc1cc(C[C@H]2COC(=O)[C@@H]2Cc2ccc(O)c(OC)c2)ccc1O [zhang 284, (−)-Matairesinol] in your answer.
Response: < 90%
